Test system: LOX IMVI melanoma
Test: NCI-60 one-dose screen, 48 h
Conditions: 10 µM unless noted
Compounds without any hit were thinned out: in the full panel of roughly 83,000, 20% have a hit. Active and inactive are the calls of the source. The calls were made as follows: active = growth percent below 10; inactive = the rest.
Outcome (select one): active, inactive

Answered cases to consult:
How was COc1cc(C2CC(c3cc(OC)c(OC)c(OC)c3)=Nc3c(N)nc(N)nc3N2)ccc1Oc1nc(Nc2ccc(F)cc2)nc(N(C)C)n1 (stereo not drawn) classified in this test? inactive

How was `C=CCSc1nnc(-c2ccc(-c3nc4ccc(Cl)cc4[nH]3)cc2)o1` classified in this test? inactive

How was `Nc1nnc(CS(=O)(=O)c2ccccc2)s1` classified in this test? inactive

Others:
How was `C=CCSc1nnc(-c2c(C)nc3sccn23)o1` classified in this test? inactive

How was `Nc1cc2ccccc2c(=O)n1NC(=O)c1ccccc1` classified in this test? inactive

How was `C#CCN(C)CCCOc1ccc(N(CC)C(=O)c2cc(C(C)C)c(O)cc2O)cc1Cl` classified in this test? active
